Tested on: Pseudomonas aeruginosa
Experiment: Antimicrobial activity against Pseudomonas aeruginosa ATCC 13525 after 18 hrs by broth microdilution method
Format: functional
Conditions: ATCC 13525, 18 h
measurement name: MIC (µg/mL)
Supply the numeric figure in µg/mL, leaving out any unit text.

Examples with answers:
[
  {
    "structure notation": "Cc1ncc([N+](=O)[O-])n1CCOC(=O)c1ccccc1OCc1ccc(F)cc1",
    "MIC [µg/mL]": 25
  },
  {
    "structure notation": "COc1ccc(COc2ccccc2C(=O)OCCn2c([N+](=O)[O-])cnc2C)cc1",
    "MIC [µg/mL]": 6.25
  }
]

Record summary for `Cc1ncc([N+](=O)[O-])n1CCOC(=O)c1ccccc1OCc1ccccc1F` : reported MIC = 50

---

Assay: Cytotoxicity against human macrophages after 24 hrs by MTT assay
Assay type: cell-based, Macrophage
Rule: CC50 at 24 h below 200 µM gives rule met. Equal to or above 200 µM gives rule not met.

[
  {
    "structure notation": "Cc1ncc([N+](=O)[O-])n1CCOC(=O)c1ccccc1OCc1ccc(C(C)C)cc1",
    "class name": "rule not met"
  },
  {
    "structure notation": "Cc1ncc([N+](=O)[O-])n1CCOC(=O)c1ccccc1OCc1ccc(F)cc1",
    "class name": "rule met"
  },
  {
    "structure notation": "Cc1ncc([N+](=O)[O-])n1CCOC(=O)c1ccccc1OCc1ccccc1C(F)(F)F",
    "class name": "rule not met"
  },
  {
    "structure notation": "Cc1ncc([N+](=O)[O-])n1CCOC(=O)c1ccccc1OCc1ccc(Cl)cc1",
    "class name": "rule met"
  },
  {
    "structure notation": "Cc1ncc([N+](=O)[O-])n1CCOC(=O)c1ccccc1OCc1ccc(Cl)c(F)c1",
    "class name": "rule met"
  },
  {
    "structure notation": "Cc1ncc([N+](=O)[O-])n1CCOC(=O)c1ccccc1OCc1ccccc1",
    "class name": "rule not met"
  }
]

Please turn your attention to the following entry.
Lookup: I'd appreciate it if you could check whether `COc1ccc(COc2ccccc2C(=O)OCCn2c([N+](=O)[O-])cnc2C)cc1` has CC50 at 24 h smaller than 200 µM.
Found: rule not met
